System: MS2 coat protein
ASSAY_OVERVIEW: apparent Kd, MS2 coat protein; higher = weaker binding; RNA-MaP array; theophylline 2 mM where present
ASSAY_CONTEXT: ligand present: theophylline; designed as: OFF switch for theophylline
Exercise: for every item that follows, state its recorded apparent Kd.
Answers are plain numbers, in nM.

Recorded apparent Kd, per entry:
1) GAGCUGAUGUAGAGAUUUUAUUUCUGAGAUACCAGUACAGAAAUGUACCCUUGGCAGCUCAGCUUUACAUGAGGAUCACCCAUGU ... 22.1
2) CAGCCUGAUUGGUAAAUCCCUCAUCGUGAUACCAGUCGAGUGAUCGACCCUUGGCAGCACAUGAGGAUCACCCAUGUGCGCGUAA ... 29.8
3) ACGUCACGUUUACUCGUGGUUUCGAUCGAUACCAGUAGCGAGAGUUACCCUUGGCAGCGACAUGAGGAUCACCCAUGUACGAAGA ... 18.4
4) CCAUAUGUAACUGAUACCAGUGUACUGACAUGAGGAUCACCCAUGUUGGGUUUUGUUGUACACCCUUGGCAGCAGAAUCAUAUGG ... 80.4
5) AUACCUAAUGAGUCGUGUAACUUUUCAGAUACCAGACUUUUCGUUGUCCCUUGGCAGCUGUUUUACAUGAGGAUCACCCAUGUUG ... 38.1

Provide apparent Kd values for the following items, in order.
1. UAUAUAGUGAUGGAUACCAGCAGAGAAAACGUUUAUCCUAACAUGAGGAUCACCCAUGUAUGCCCUUGGCAGCUGUUGUUAUAUA
2. AUACCUAUUGAGUCGUGUUUCUAUUCAGAUACCAGACUUUUCGUUGUCCCUUGGCAGCUGUUUUACAUGAGGAUCACCCAUGUUG
3. GAGCUGAUGUAGAGCUAAUAUAAGAGAGAUACCAGUACAGAAAUGUACCCUUGGCAGCUCAACUUUACAUGAGGAUCACCCAUGU
4. CUCGAGUUAUGAGAUACCAGACUAUAGUUUACAUGAGGAUCACCCAUGUUAUGGGUGGUGGUCCCUUGGCAGCUCAUAUGUUUAA
5. GUAUGGAAACAUACUAGGGUAUCAUGAGAUACCAGUACAGAAAUGUACCCUUGGCAGCUCUAGCAUACAUGAGGAUCACCCAUGU
6. ACAUGAGGAUCACCCAUGUUCCUCGCCGAUACCAGUGAAGAAUUACGCCCUUGGCAGCGGAAAGAGUAUUUUGGAGAUGAGGUAC
7. GGGAAUGAACGUGAUACCAGAGAUCCGGUCUCCGUCAAUAUACAUGAGGAUCACCCAUGUCUCCCUUGGCAGCACCGUCAUCGGG
8. GAUGAACUAUAUGAUACCAGACAACAUGAGGAUCACCCAUGUGAUUGUCGUCCUCUGCCUGUCCCUUGGCAGCGUAUAGUUUAUC

Reply:
28
17.5
16.9
284
22.9
83.5
23.4
229

Query: Which apparent Kd is reported for this sequence? AUAUGAUCAUAUGAUACCAGAAAUGGUAUUCCUUUGUUUCUUACAUGAGGAUCACCCAUGUUCCCUUGGCAGCAUAUGAUCAUAU
Reply: 251

* * *

Test system: MS2 coat protein
ASSAY_OVERVIEW: apparent Kd, MS2 coat protein; higher = weaker binding; RNA-MaP array; FMN 200 µM where present
ASSAY_CONTEXT: ligand present: flavin mononucleotide; designed as: ON switch for flavin mononucleotide
READOUT_NAME: apparent Kd (nM)
One number for each entry, in nM.

1. GUUUCUAUAUGUUUUAUUUAACAGUCAGAAGGUGAUACUACGACAUGAGGAUCACCCAUGUAAUUCAAGGAUAUGAACUUAAUC ... 517
2. GGGCUGGUAACAGGAUAUCGUGCCUGGCCGGAUUACAUGAGGAUCACCCAUGUCGUUGGAACCAACGAGAAGGGUUGCCUCCCA ... 102
3. AAAAGACAUGAGGAUCACCCAUGUCAAGACGUAGGAGGAUAUGUCGUGAAAAAAGACUUGACAGAAGGCCUGUGUC ... 15.4
4. GCCAUCGCAUGAGGAUAUGCUCCCGUUUCGGGAGCAGAAGGCAUGUAAUAAGACAUGAGGAUCACCCAUGUAGUUAAGAUGGCA ... 5.32
5. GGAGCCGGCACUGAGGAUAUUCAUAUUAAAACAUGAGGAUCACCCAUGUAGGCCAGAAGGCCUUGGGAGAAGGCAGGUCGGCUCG ... 27.9
6. GGACGUCACAUUAACAUGAGGAUCACCCAUGUCUAUAGACAUGAGGAUAUGGAUCCUAAUUGGAUCCAGAAGGCAUGGACGUCC ... 46.3

Now let's try a different one.
Query: Which apparent Kd is reported for this sequence? AAAAGACAUGAGGAUCACCCAUGUGAAAACAUACAAGGAUAUGUGUGGAAACCGUACUAUACAGAAGGUGUAUGUC
Reply: 20

Where these numbers come from: the EternaBench riboswitch data
